Numbers sourced from patent US20220185900A1.

# system: T1, hRET.mFc (human)
# T1 construct: also called dimeric human RET
# protocol_details: SPR Biacore T200, mAb capture, 37 C
Outcome label depends on t½ relative to 20 min: at/above gives Satisfied, below gives Not satisfied.

binder	category
H4H8060P (antibody, human IgG4, V domains shown, human IgG4 Fc (H4H prefix)) VH: QVTLKESGPVLVKPTETLTLTCTVSGFSLSSARMGVSWIRQPPGKALEWLAHIFSTDEKSYSTSLKSRLSISKDTSLSQVVLIMTNMDPVDTATYYCARRTTMAPYYYYYGMDVWGHGTTVTVSS VL: AIQMTQSPASLSASVGDRVTITCRASQGIRNDLGWYQQKPGKAPKLLISAASSLQSGVPSRFSGSGSGTDFTLTISSLQPEDFATYYCLQDYKYPWTFGQGTKVEIK	Not satisfied
H4H8083P (antibody, human IgG4, V domains shown, human IgG4 Fc (H4H prefix)) VH: QVQLVESGGGVVQPGRSLRLSCAASGFTFNNYVMHWVRQAPGKGLEWVALIWYDGSNKYYADSVKGRFTISRDNSKNALNLQMNSLRAEDTAVYFCARVSIAARNYYYGGLDVWGQGTTVTVSS VL: EIVLTQSPGTLSLSPGERATLSCRASQSVSSTYLAWYQQKPGQAPRLLIYGASSRATGIPDRFSGSGSGTDFTLTISRLEPEDFAVYYCQHYGGSPLTFGGGTKVEIK	Not satisfied
H4H8045P (antibody, human IgG4, V domains shown, human IgG4 Fc (H4H prefix)) VH: EVQLVESGGALVQPGGSLRLSCAASGFTFSNYAMTWVRQAPGMGLEWVSGISSSGASTFYADSVKGRFTISRDNSKNTLYLQMNSLRAEDTAVYYCAKEDYWGWFDYWGQGTLVTVSS VL: DIQLTQSPSFLSASVGDRVTITCWASQDVSSYLAWYQQEPGKAPKVLIYDASTLQSGVPSRFSGSGSGTEFTLTISSLQPEDFAPYYCQQLNSYPYTFGQGTKLEIK	Satisfied
H4H8085P (antibody, human IgG4, V domains shown, human IgG4 Fc (H4H prefix)) VH: QVQLVESGGGVVQPGRSLRLSCTASGFTFDNYGMHWVRQAPGKGLEWVAVISYDGSNTFYADSVKGRFTISRDNSKNALYLQMNSLRAEDTAVYYCAKDLEFDILIGYPFDSWGRGTLVTVSS VL: DIQLTQSPSFLSASVGDRVTITCWASQDISRYLAWYQQKPGKAPNLLIYAASTLQSGVPSRFSGSGSGTEFTLTINSLQPEDFATYYCQQLFSYPRTFGQGTKVEIK	Satisfied
H4H8087P (antibody, human IgG4, V domains shown, human IgG4 Fc (H4H prefix)) VH: QVQLVESGGGVVQPGRSLRLSCAASGFSFSSYGMHWVRQAPGKGLEWVAVMWYDGSNEYYADSVKGRFIISRDNSKSTLYLEMNSLRAEDTALYYCAREDWDEGYYYGMDVWGQGTTVTVSS VL: DIQMTQSPSSLFASVGDRVTITCRASQDIRYDLGWYQQKPGKAPKRLIYASSILESGVPSRFSGSGSGTEYTLTISTLQSEDFAIYYCLQHNSFPWTFGQGTKVEIK	Satisfied
